Test: in vivo
Conditions: female, C57BL/6, mouse, ip

compound	MTD at 5 d
Cc1c(CN(C)C(=O)/C=C/c2cnc3c(c2)CC[C@H](N)C(=O)N3)oc2ccccc12 [fabimycin]	> 100 mg/kg

====

Test: Pharmacokinetic assessment in neutropenic A. baumannii-infected mice
Format: in vivo, mouse
Details: female, BALB/c, mouse; plasma; 75 mg/kg, IV, single dose
quantity_measured: half-life (h)

smiles_representation	quantity_measured	result_value
Cc1c(CN(C)C(=O)/C=C/c2cnc3c(c2)CC[C@H](N)C(=O)N3)oc2ccccc12	half-life	1.4

====

Assay: in vivo
Conditions: BALB/c, mouse, iv

molecule	unit_abbreviation	MTD at 3 d
Cc1c(CN(C)C(=O)/C=C/c2cnc3c(c2)CC[C@H](N)C(=O)N3)oc2ccccc12 [fabimycin]	mg/kg	75
